molecular target: human PARD-1 (Poly (ADP-Ribose) Polymerase-1) (Homo sapiens)
Sequence (P09874 whole entry): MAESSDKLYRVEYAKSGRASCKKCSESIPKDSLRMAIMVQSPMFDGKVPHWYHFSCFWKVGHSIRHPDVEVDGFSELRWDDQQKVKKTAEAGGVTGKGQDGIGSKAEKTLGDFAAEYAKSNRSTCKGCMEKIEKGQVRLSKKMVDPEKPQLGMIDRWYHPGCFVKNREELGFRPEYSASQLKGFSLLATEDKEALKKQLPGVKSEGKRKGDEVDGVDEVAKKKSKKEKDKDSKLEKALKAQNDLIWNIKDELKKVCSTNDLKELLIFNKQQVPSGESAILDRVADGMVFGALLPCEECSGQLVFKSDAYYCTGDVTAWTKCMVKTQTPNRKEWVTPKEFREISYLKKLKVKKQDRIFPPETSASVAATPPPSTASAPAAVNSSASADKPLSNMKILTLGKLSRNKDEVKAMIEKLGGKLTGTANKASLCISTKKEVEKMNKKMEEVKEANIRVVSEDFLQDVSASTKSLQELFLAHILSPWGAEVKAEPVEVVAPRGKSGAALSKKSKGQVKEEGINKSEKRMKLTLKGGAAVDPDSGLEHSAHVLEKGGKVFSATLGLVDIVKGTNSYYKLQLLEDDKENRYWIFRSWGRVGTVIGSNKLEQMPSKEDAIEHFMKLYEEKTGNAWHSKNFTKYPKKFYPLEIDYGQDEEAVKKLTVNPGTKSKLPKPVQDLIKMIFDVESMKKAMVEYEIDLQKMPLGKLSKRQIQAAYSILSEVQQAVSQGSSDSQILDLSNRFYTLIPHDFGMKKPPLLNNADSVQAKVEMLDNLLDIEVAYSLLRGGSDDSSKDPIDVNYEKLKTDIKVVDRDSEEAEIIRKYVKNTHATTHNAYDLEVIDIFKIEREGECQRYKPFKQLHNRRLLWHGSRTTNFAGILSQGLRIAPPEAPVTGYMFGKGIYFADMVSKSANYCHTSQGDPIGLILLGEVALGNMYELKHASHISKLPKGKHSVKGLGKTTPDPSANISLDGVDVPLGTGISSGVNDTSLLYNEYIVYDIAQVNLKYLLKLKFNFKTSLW
In this section we review reported IC50 values for a set of compounds.

MOLECULAR STRING: Nc1cc(-c2n[nH]c(=O)c3ccccc23)ccc1N1CCN(c2ccncc2)CC1
IC50: 1 to 100 nM
--
MOLECULAR STRING: Nc1cc(-c2n[nH]c(=O)c3ccccc23)ccc1N1CCN(CC2CC2)CC1
IC50: 1 to 100 nM
--
MOLECULAR STRING: Nc1cc(-c2n[nH]c(=O)c3ccccc23)ccc1N1CCN(CC(=O)O)CC1
IC50: 1 to 100 nM
--
MOLECULAR STRING: Nc1cc(-c2n[nH]c(=O)c3ccccc23)ccc1N1CCN(C(=O)c2ccncc2)CC1
IC50: 100 to 1000 nM
--
MOLECULAR STRING: CC(=O)Nc1cc(-c2n[nH]c(=O)c3ccccc23)ccc1N1CCN(C(C)C)CC1
IC50: 1000 to 5000 nM
--
MOLECULAR STRING: CNC(=O)Nc1cc(-c2n[nH]c(=O)c3ccccc23)ccc1N1CCN(C)CC1
IC50: 100 to 1000 nM
--
MOLECULAR STRING: CC(=O)Nc1cc(-c2n[nH]c(=O)c3ccccc23)ccc1N1CCN(C(C)=O)CC1
IC50: 1000 to 5000 nM
--
MOLECULAR STRING: CN1CCN(c2ccc(-c3n[nH]c(=O)c4ccccc34)cc2NC(=O)c2ccc3c(c2)OCO3)CC1
IC50: 100 to 1000 nM
--
MOLECULAR STRING: CN1CCN(c2ccc(-c3n[nH]c(=O)c4ccccc34)cc2NC(=O)c2cccc(C#N)c2)CC1
IC50: 100 to 1000 nM
